Provide the reported Cmax of each item.
PROTOCOL SUMMARY: Cmax in rat at 1 mg/kg, iv or 2 mg/kg, po
Type: ADME, organism-based
Parameters: dose 2 mg/kg
MEASUREMENT CONTEXT: in vivo
Note: unit ng/mL is implicit; provide only the numeric part.

Entry C[C@H](NC(=O)Cn1nnc2ccccc2c1=O)c1ccc(OC(F)(F)F)cc1 : reported Cmax = ?
961

Then this compound: COc1cccc2nnn(CC(=O)N[C@@H](C)c3ccc(C)cc3)c(=O)c12
541

Then this compound: Cc1ccc([C@H](C)NC(=O)Cn2nnc3ccccc3c2=O)cc1
94

Then this compound: COc1ccc2nnn(CC(=O)N[C@@H](C)c3ccc(C)cc3)c(=O)c2c1
15

Then this compound: C[C@H](NC(=O)Cn1nnc2ccccc2c1=O)c1ccc(C(F)(F)F)cc1
644

---

PROTOCOL SUMMARY: Lipophilicity, logD of compound
Type: physicochemical
MEASUREMENT CONTEXT: octanol/water
TEST READOUT: logD
In your answer, state the number alone without any accompanying words.

Entry C[C@H](NC(=O)Cn1nnc2ccccc2c1=O)c1ccc(OC(F)(F)F)cc1 : reported logD = ?
2.4

---

PROTOCOL SUMMARY: Volume of distribution in rat at 1 mg/kg, iv or 2 mg/kg, po
Format: ADME, organism-based
MEASUREMENT CONTEXT: in vivo
So basically, if Vd comes in under 1 L/kg it's met, and if it's 1 L/kg or more it's not met.

Consider the compound COc1cccc2nnn(CC(=O)N[C@@H](C)c3ccc(C)cc3)c(=O)c12 . Is its Vd strictly less than 1 L/kg?
met

Then this compound: COc1ccc2nnn(CC(=O)N[C@@H](C)c3ccc(C)cc3)c(=O)c2c1
met

Then this compound: Cc1ccc([C@H](C)NC(=O)Cn2nnc3ccccc3c2=O)cc1
not met

Then this compound: C[C@H](NC(=O)Cn1nnc2ccccc2c1=O)c1ccc(C(F)(F)F)cc1
not met

---

Test system: MDR1 (human)
PROTOCOL SUMMARY: Permeability across apical to basolateral side in pig LLC-PK1 cells expressing human MDR1
Assay type: ADME, cell-based, Sus scrofa
MEASUREMENT CONTEXT: read-out: permeability
TEST READOUT: Papp A→B (×10⁻⁶ cm/s)
Note: unit ×10⁻⁶ cm/s is implicit; provide only the numeric part.

Find the measured Papp A→B: item C[C@H](NC(=O)Cn1nnc2ccccc2c1=O)c1ccc(OC(F)(F)F)cc1 [ZELATRIAZIN] , target or system MDR1 (human).
18.3
